I'd be grateful if you could share measured Kd for these entries.
# assay.system: T1, HUMAN B7H3 (Biacore analyte) (human, UniProt Q5ZPR3 29-461, limits assumed)
# T1 construct: also called hB7H3
# T1 sequence (looked up): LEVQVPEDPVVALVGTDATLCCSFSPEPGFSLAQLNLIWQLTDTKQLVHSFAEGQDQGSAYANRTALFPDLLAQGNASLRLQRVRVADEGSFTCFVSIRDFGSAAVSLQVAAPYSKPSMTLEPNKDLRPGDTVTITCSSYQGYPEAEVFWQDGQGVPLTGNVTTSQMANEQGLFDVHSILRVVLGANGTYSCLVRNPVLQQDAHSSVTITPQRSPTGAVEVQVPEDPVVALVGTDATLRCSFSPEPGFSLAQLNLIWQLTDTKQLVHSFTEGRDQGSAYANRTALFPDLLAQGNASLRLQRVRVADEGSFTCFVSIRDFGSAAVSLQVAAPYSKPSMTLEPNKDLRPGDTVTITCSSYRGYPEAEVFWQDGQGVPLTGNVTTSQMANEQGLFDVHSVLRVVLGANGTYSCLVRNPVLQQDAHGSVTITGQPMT
# assay.comment: SPR, Biacore 8K, antibody captured, B7H3 as analyte, 1:1 binding
Give just the numeric value; nM need not be written.

Ask | Please indicate Kd recorded for 25-C8-D7-C5 (human IgG1 chimeric antibody) (antibody, V domains shown, human IgG1 chimeric antibody of the mouse clone) VH: EVQLQESGGGLVKPGGSLKFSCAASGFTFSTYAMSWVRQTPEKRLEWVATISGGGIDTYYPDSVKGRFTISRDNAKNTLYLQMNSLRSEDTAMYYCARQGSKGWGAMDYWGQGTSVTVSS VL: QIVLTQSPAIMSASPGEKVTMTCRASSSVSFMHWYQQKSGTSPKRWIYETSKLASGVPDRFSGSGSGTSYSLTISSMEAEDAATYYCQQWSSNPLTFGAGTKLELK
Reply | 1.2

Ask | Please indicate Kd recorded for 20-A2-D10-G8 (human IgG1 chimeric antibody) (antibody, V domains shown, human IgG1 chimeric antibody of the mouse clone) VH: QVQLQQSGPELVRPGVSVKISCKGSGYTFTDYTMHWVKESHAQSLEWIGVISTYYGNTNYNQNFKGKATLTVDKSSSTAYMELAGLTSEDSAIYYCARASYGSGYGPYYWYFDVWGAGTTVTVSS VL: DIQMTQSPASLFASVGETVTITCRASEKIYSYLAWYFQKQGKSPQFLVYNANALAEGVPSRFSGSGSGTQFSLKIKSLQPEDFGTYYCQHHYGSPVTFGAGSKLELK
Reply | 0.555

Ask | Please indicate Kd recorded for 15-C8-B5-G7 (human IgG1 chimeric antibody) (antibody, V domains shown, human IgG1 chimeric antibody of the mouse clone) VH: QVQLQQPGAELVKPGASVKLSCKASDYTFTSHWMHWVKQRPGQGLEWIGMIHPNSGTTHYNENFKNKATLTVDNSSSTAYMQLSSLTSEDSAVYYCAWGSSNSYFYAMAYWGQGTSVTVSS VL: QAVVTQESALTTSPGETVTLTCRSSTGAVTTSNYANWVQEKPAHLFTGLIGGTNNRAPGVPARFSGSLIGDKAALTITGAQTEDEAIYFCALWFSNHLVFGGGTKLTVL
Reply | 0.399

Ask | Please indicate Kd recorded for 8-C3-E3-F3 (human IgG1 chimeric antibody) (antibody, V domains shown, human IgG1 chimeric antibody of the mouse clone) VH: EVQLVESGGGLVQPGGSLKLSCAASGFTFSNYGLSWVRLTPDKRLEVVATIGSYGGNTYYPDSVKGRFTISRDNAKNTLYLQMSSLKSEDTAIYYCARDIYYGNSEAWFAYWGQGTLVTVSA VL: DIVMTQAAFSNPVTLGTSASISCRSSKSLLHSNGITYLYWYLQKPGQSPQLLIYQMSNLASGVPDRFSSSGSETDFTLRISRVEAEDVGVYYCAQNLELPWTFGGGTKLEIK
Reply | 0.444

Ask | Please indicate Kd recorded for 6-D8-E7-A11 (human IgG1 chimeric antibody) (antibody, V domains shown, human IgG1 chimeric antibody of the mouse clone) VH: QVHLQQPGAELVKPGASVKLSCKASGYTFTNYWMHWVKRRPGQGLEWIGMIHPNSGTTSFNEKFKSKATLTVDKSSSTAYMQLSSLTSEDSAVYYCAGYYGSSFSWFTYWGQGTLVTVSA VL: QAVVTQESALTTSPGGTVILTCRSSTGAVTTSNFANWVQEKPDHLFTGLIGGTSNRAPGVPVRFSGSLIGDKAALTITGAQTEDDAMYFCALWYSTHYVFGGGTKVTVL
Reply | 0.749
